biological target: Kappa-type opioid receptor (Homo sapiens, UniProt P41145); experiment: Inhibition of KOP (unknown origin)
Sequence (P41145 whole entry): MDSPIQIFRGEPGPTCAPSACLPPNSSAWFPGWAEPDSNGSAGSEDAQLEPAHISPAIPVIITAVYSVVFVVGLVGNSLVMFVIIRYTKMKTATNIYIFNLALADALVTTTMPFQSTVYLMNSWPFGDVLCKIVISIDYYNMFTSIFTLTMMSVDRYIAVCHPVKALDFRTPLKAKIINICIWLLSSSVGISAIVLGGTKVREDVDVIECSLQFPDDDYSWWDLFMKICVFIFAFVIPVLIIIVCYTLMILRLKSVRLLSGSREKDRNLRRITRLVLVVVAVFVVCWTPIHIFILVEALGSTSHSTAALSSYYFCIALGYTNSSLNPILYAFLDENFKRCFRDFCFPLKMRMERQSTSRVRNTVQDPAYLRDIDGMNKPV
pIC50: −log10 of the molar value.
Measured Metric: pIC50

Compound | Tgt | Measurement
C=C[C@H]1CN2CCc3c([nH]c4cccc(OC)c34)[C@@H]2C[C@@H]1/C(=C\OC)C(=O)OC | Kappa-type opioid receptor (Homo sapiens, UniProt P41145) | 5.00
CC[C@@H]1CN2CCc3c([nH]c4cccc(OC)c34)[C@H]2C[C@@H]1/C(=C\OC)C(=O)OC | Kappa-type opioid receptor (Homo sapiens, UniProt P41145) | 5.00
CC[C@H]1CN2CCc3c([nH]c4cccc(OC)c34)[C@@H]2C[C@@H]1/C(=C\OC)C(=O)OC | Kappa-type opioid receptor (Homo sapiens, UniProt P41145) | 5.00
CC[C@@H]1CN2CC[C@]3(O)c4c(cccc4OC)NC3[C@@H]2C[C@@H]1/C(=C\OC)C(=O)OC (some centres undefined) | Kappa-type opioid receptor (Homo sapiens, UniProt P41145) | 6.16

----------
The entries below are paired with their reported remaining at […].
assay: Stability in rat brain homogenate assessed as compound remaining measured after 90 mins relative to control; format: ADME, tissue-based; details: read-out: Stability

Mol | Units | remaining at […]
Cc1cc(O)cc(C)c1C[C@H](N)C(=O)N[C@@H]1CCCCNC(=O)C[C@@H](C(N)=O)NC(=O)[C@H](c2ccccc2)NC(=O)[C@H](c2ccc(C(F)(F)F)cc2)NC1=O | % | 93
Cc1cccc([C@@H]2NC(=O)[C@H](NC(=O)[C@@H](N)Cc3c(C)cc(O)cc3C)CCCCNC(=O)C[C@@H](C(N)=O)NC(=O)[C@H](c3ccccc3)NC2=O)c1 | % | 85
NC(=O)[C@@H]1CC(=O)NCCCC[C@@H](NC(=O)[C@@H](N)Cc2ccc(O)cc2)C(=O)N[C@@H](c2ccccc2)C(=O)N[C@@H](c2ccc(F)cc2)C(=O)N1 | % | 93
Cc1cc(O)cc(C)c1C[C@H](N)C(=O)N[C@@H]1CCCCNC(=O)C[C@@H](C(N)=O)NC(=O)[C@H](c2ccccc2)NC(=O)[C@H](c2ccc(F)cc2)NC1=O | % | 93
Cc1cc(O)cc(C)c1C[C@H](N)C(=O)N[C@@H]1CCCCNC(=O)C[C@@H](C(N)=O)NC(=O)[C@H](c2ccc(C(F)(F)F)cc2)NC(=O)[C@H](c2ccccc2)NC1=O | % | 93

----------
target: Kappa-type opioid receptor (Cavia porcellus, UniProt P41144); test: Displacement of [3H]U69593 from guinea pig brain KOP incubated for 90 mins by scintillation counter; format: tissue-based
Sequence (P41144 whole entry): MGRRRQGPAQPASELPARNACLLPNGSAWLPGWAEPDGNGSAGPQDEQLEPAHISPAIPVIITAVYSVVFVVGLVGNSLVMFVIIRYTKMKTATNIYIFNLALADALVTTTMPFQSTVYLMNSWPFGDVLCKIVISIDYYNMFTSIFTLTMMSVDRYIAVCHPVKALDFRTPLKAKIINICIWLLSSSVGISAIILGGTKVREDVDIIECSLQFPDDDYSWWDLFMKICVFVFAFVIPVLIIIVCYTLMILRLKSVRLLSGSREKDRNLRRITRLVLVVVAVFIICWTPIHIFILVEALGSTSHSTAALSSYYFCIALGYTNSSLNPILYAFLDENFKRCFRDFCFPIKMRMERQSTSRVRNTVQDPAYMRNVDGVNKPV

Mol | Tgt | Ki [nM]
C[C@@H](NC(=O)[C@@H](N)Cc1ccc(O)cc1)C(=O)N[C@@H](Cc1ccccc1)C(=O)NCC(=O)N[C@@H](Cc1ccc(O)cc1)C(=O)N1CCC[C@H]1C(=O)N[C@@H](CCCCN)C(N)=O | Kappa-type opioid receptor (Cavia porcellus, UniProt P41144) | 617

----------
The entries below are paired with their reported Emax.
biological target: UniProtKB P35372; test: Agonist activity at MOP (unknown origin) stably expressed in HEK293 cells assessed as forskolin stimulated cAMP accumulation incubated for 30 mins by radioactivity based scintillation counter analysis relative to control; assay type: functional, cell-based; conditions: filed as agonist
Sequence (P35372 whole entry): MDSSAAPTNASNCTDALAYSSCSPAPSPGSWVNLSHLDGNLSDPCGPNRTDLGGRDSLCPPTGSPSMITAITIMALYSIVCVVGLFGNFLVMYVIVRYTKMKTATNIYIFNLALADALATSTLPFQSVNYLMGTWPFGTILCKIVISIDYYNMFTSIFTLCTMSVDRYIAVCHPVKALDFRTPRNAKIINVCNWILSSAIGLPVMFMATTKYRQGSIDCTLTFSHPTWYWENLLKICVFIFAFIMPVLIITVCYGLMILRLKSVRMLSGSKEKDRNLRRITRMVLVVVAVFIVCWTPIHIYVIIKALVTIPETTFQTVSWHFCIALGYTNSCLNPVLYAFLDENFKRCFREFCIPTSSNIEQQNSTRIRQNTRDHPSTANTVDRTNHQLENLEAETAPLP
Measured Metric: Emax (%)

Mol | Measurement
C=C(C(N)=O)[C@@H](NC(=O)[C@H](Cc1c[nH]c2ccccc12)NC(=O)[C@@H](C)N(C)C(=O)[C@@H](N)Cc1ccc(O)cc1)c1ccccc1 | 88.3
C=C(C(N)=O)[C@@H](NC(=O)[C@H](Cc1c[nH]c2ccccc12)NC(=O)[C@@H](C)N(C)C(=O)[C@@H](N)Cc1ccc(O)cc1)c1ccco1 | 90.6
C=C(C(N)=O)[C@@H](NC(=O)[C@H](Cc1ccccc1)NC(=O)[C@@H](C)N(C)C(=O)[C@@H](N)Cc1ccc(O)cc1)c1ccco1 | 87.7
